Catalogue of pIC50 readings, one per entry.
Tested on: MOLT-3 cell line
assay_protocol: Cell survival assay of selected drugs
Type: cell-based, human
measurement_parameters: Homo sapiens, MOLT-3, 96 h, read-out: IC50 Mean ± SE
pIC50: −log10 of the molar value.

Here's what some known entries look like.
| molecule | pIC50 |
| --- | --- |
| CN(Cc1cnc2nc(N)nc(N)c2n1)c1ccc(C(=O)N[C@@H](CCC(=O)O)C(=O)O)cc1 [Methotrexate] | < 5.00 |
| C/C(=C\c1csc(C)n1)[C@@H]1C[C@@H]2O[C@]2(C)CCC[C@H](C)[C@H](O)[C@@H](C)C(=O)C(C)(C)[C@@H](O)CC(=O)N1 [Ixabepilone] | < 5.00 |

// below: pIC50 requested for another molecule
**Q:** Sample `CCC1=C[C@@H]2CN(C1)Cc1c([nH]c3ccccc13)[C@@](C(=O)OC)(c1cc3c(cc1OC)N(C)[C@H]1[C@@](O)(C(=O)OC)[C@H](OC(C)=O)[C@]4(CC)C=CCN5CC[C@]31[C@@H]54)C2` — what was its pIC50?
**A:** < 5.00
